- procedure details: Half life in rat at 3 mg/kg, iv and 10 mg/kg, po
- Type: ADME, organism-based
- assay setup: in vivo
quantity name: half-life (h)

{"molecule": "C1c2c(-c3nnn[nH]3)n[nH]c2[C@H]2C[C@@H]12 (stereo in doubt; (+)17a)", "unit abbreviation": "h", "test value": 1.9}

* * *

- procedure details: Plasma clearance in rat at 3 mg/kg, iv and 10 mg/kg, po
- Format: ADME, organism-based

{"molecule": "C1c2c(-c3nnn[nH]3)n[nH]c2[C@H]2C[C@@H]12 (stereo in doubt; (+)17a)", "clearance / mL/min/kg": 25.5}

* * *

- procedure details: Cmax in rat at 3 mg/kg, iv and 10 mg/kg, po
- Assay type: ADME, organism-based
- assay setup: in vivo
quantity name: Cmax (µM)

{"compound": "C1c2c(-c3nnn[nH]3)n[nH]c2[C@H]2C[C@@H]12 (stereo in doubt; (+)17a)", "test value": 4.9}

* * *

- procedure details: Plasma clearance in dog at 3 mg/kg, iv and 10 mg/kg, po
- Assay type: ADME, organism-based, Canis lupus familiaris
quantity name: clearance (mL/min/kg)

{"compound": "C1c2c(-c3nnn[nH]3)n[nH]c2[C@H]2C[C@@H]12 (stereo in doubt; (+)17a)", "quantity name": "clearance", "unit abbreviation": "mL/min/kg", "test value": 12.4}

* * *

- procedure details: Volume of distribution at steady state in rat at 3 mg/kg, iv and 10 mg/kg, po
- Format: ADME, organism-based
- assay setup: in vivo, read-out: Vdss
quantity name: Vd (L/kg)

{"compound": "C1c2c(-c3nnn[nH]3)n[nH]c2[C@H]2C[C@@H]12 (stereo in doubt; (+)17a)", "test value": 0.34}

* * *

- procedure details: Volume of distribution at steady state in mouse at 3 mg/kg, iv and 10 mg/kg, po
- Assay type: ADME, organism-based
- assay setup: in vivo, read-out: Vdss

{"molecule": "C1c2c(-c3nnn[nH]3)n[nH]c2[C@H]2C[C@@H]12 (stereo in doubt; (+)17a)", "Vd [L/kg]": 3.4}

* * *

- procedure details: Antidyslipidemic activity in human adipocytes assessed as inhibition of isoproteranol-induced production of free fatty acids
- assay setup: Adipocyte
Recorded IC50 by entry
quantity name: IC50 (µM)

{"compound": "O=C(O)c1cccnc1 [NIACIN]", "test value": 0.06}
{"compound": "C1Cc2[nH]nc(-c3nn[nH]n3)c2C1", "test value": 0.87}
{"compound": "C1c2c(-c3nnn[nH]3)n[nH]c2[C@H]2C[C@@H]12 (stereo in doubt; (+)17a)", "test value": 0.09}

* * *

- procedure details: Cmax in mouse at 3 mg/kg, iv and 10 mg/kg, po
- Format: ADME, organism-based
- assay setup: in vivo

{"compound": "C1c2c(-c3nnn[nH]3)n[nH]c2[C@H]2C[C@@H]12 (stereo in doubt; (+)17a)", "Cmax": "2000 nM"}

* * *

- procedure details: Oral bioavailability in mouse at 10 mg/kg
- Format: ADME, organism-based
- assay setup: in vivo

{"molecule": "C1c2c(-c3nnn[nH]3)n[nH]c2[C@H]2C[C@@H]12 (stereo in doubt; (+)17a)", "unit abbreviation": "%", "bioavailability": 97}

* * *

- procedure details: Volume of distribution at steady state in dog at 3 mg/kg, iv and 10 mg/kg, po
- Type: ADME, organism-based, Canis lupus familiaris
- assay setup: in vivo, read-out: Vdss
quantity name: Vd (L/kg)

{"molecule": "C1c2c(-c3nnn[nH]3)n[nH]c2[C@H]2C[C@@H]12 (stereo in doubt; (+)17a)", "test value": 0.53}

* * *

- procedure details: Half life in monkey at 3 mg/kg, iv and 10 mg/kg, po
- Type: ADME, organism-based, Macaca mulatta
- assay setup: rhesus monkey, in vivo

{"molecule": "C1c2c(-c3nnn[nH]3)n[nH]c2[C@H]2C[C@@H]12 (stereo in doubt; (+)17a)", "unit abbreviation": "h", "half-life": 7.3}

* * *

- procedure details: Half life in dog at 3 mg/kg, iv and 10 mg/kg, po
- Format: ADME, organism-based, Canis lupus familiaris
- assay setup: in vivo

{"compound": "C1c2c(-c3nnn[nH]3)n[nH]c2[C@H]2C[C@@H]12 (stereo in doubt; (+)17a)", "half-life": "1.9 h"}

* * *

- procedure details: Oral bioavailability in rat at 10 mg/kg
- Type: ADME, organism-based
- assay setup: in vivo
quantity name: bioavailability (%)

{"molecule": "C1c2c(-c3nnn[nH]3)n[nH]c2[C@H]2C[C@@H]12 (stereo in doubt; (+)17a)", "test value": 37}

* * *

- procedure details: Half life in mouse at 3 mg/kg, iv and 10 mg/kg, po
- Assay type: ADME, organism-based
- assay setup: in vivo
quantity name: half-life (h)

{"compound": "C1c2c(-c3nnn[nH]3)n[nH]c2[C@H]2C[C@@H]12 (stereo in doubt; (+)17a)", "quantity name": "half-life", "test value": 2.4}
